This document collects Ki values reported for JAK2 (Homo sapiens (Human), UniProt O60674).
Counter-ions that a name gives are not always drawn.

I would be grateful if you could provide Ki for each of the following entries.
1. C[C@@](O)(c1ccc(Nc2cc(-c3c(F)cccc3F)nc3c2C(=O)NC3)cc1)C(F)(F)F
2. C[C@@](N)(C(=O)O)c1ccc(Nc2nc(-c3c(F)cccc3F)nc3c2C(=O)NC3)cc1 [Compound I-45, hydrochloride]
3. C[C@](O)(c1ccc(Nc2cc(-c3c(F)cccc3F)nc3c2C(=O)NC3)cc1)C(F)(F)F
4. CN1CCc2cc(Nc3cc(-c4c(F)cccc4F)nc4c3C(=O)NC4)ccc2C1=O
5. O=C1NCc2nc(-c3c(F)cccc3F)cc(Nc3ccc(C(=O)N4CCOCC45CC5)cc3)c21
6. O=C1NCc2nc(-c3c(F)cccc3F)cc(Nc3ccc4c(c3)OC3(CC3)C4=O)c21
7. CC(O)(C(=O)O)c1ccc(Nc2nc(-c3c(F)cccc3F)nc3c2C(=O)NC3)cc1 (stereo not shown)

[A]
["100 to 1000 nM", "100 to 1000 nM", "10 to 100 nM", "10 to 100 nM", "≤ 10 nM", "10 to 100 nM", "100 to 1000 nM"]

I would be grateful if you could provide Ki for each of the following entries.
1. CC1(C)COc2cc(Nc3cc(-c4c(F)cccc4C#N)nc4c3C(=O)NC4)ccc21
2. O=C1NCc2nc(-c3c(F)cccc3F)nc(Nc3ccc(OC(CO)CO)cc3)c21
3. CC1(C)COc2cc(Nc3nc(-c4c(F)cccc4F)nc4c3C(=O)NC4)ccc21

[A]
1: 10 to 100 nM; 2: 100 to 1000 nM; 3: 100 to 1000 nM

I would be grateful if you could provide Ki for each of the following entries.
1. O=C1NCc2nc(-c3c(F)cccc3F)cc(Nc3ccc(C(=O)N4CCOC5(CC5)C4)cc3)c21
2. O=C1NCc2nc(-c3c(F)cccc3F)cc(Nc3ccc(N4CCC5(CCO5)CC4)cn3)c21
3. CC1(C)Cc2ccc(Nc3cc(-c4c(F)cccc4F)nc4c3C(=O)NC4)cc2O1

[A]
1. 10 to 100 nM
2. 10 to 100 nM
3. 100 to 1000 nM

I would be grateful if you could provide Ki for each of the following entries.
1. C[C@](N)(C(=O)O)c1ccc(Nc2nc(-c3c(F)cccc3F)nc3c2C(=O)NC3)cc1
2. CC1(C)CNc2nc(Nc3cc(-c4c(F)cccc4F)nc4c3C(=O)NC4)ccc21
3. O=C1NCc2nc(-c3c(F)cccc3F)cc(Nc3ccc(N4CCC5(CC4)CC5)cn3)c21
4. CN1C(=O)C(C)(c2ccc(Nc3nc(-c4c(F)cccc4F)nc4c3C(=O)NC4)cc2)c2ccccc21 (stereo not shown)
5. CC1(C)Cc2ccc(Nc3nc(-c4c(F)cccc4F)nc4c3C(=O)NC4)cc2N1
6. C[C@](O)(C(=O)O)c1ccc(Nc2nc(-c3c(F)cccc3F)nc3c2C(=O)NC3)cc1
7. C[C@@](O)(c1ccc(Nc2nc(-c3c(F)cccc3F)nc3c2C(=O)NC3)cc1)C(F)(F)F
8. CC1(C)COc2nc(Nc3cc(-c4c(F)cccc4C#N)nc4c3C(=O)NC4)ccc21

[A]
1. 100 to 1000 nM
2. 10 to 100 nM
3. 10 to 100 nM
4. 100 to 1000 nM
5. 100 to 1000 nM
6. 100 to 1000 nM
7. 100 to 1000 nM
8. ≥ 1000 nM

[Q] # return recorded Ki for entry O=C1NCc2nc(-c3c(F)cccc3F)cc(Nc3ccc(N4CCOC45COC5)cn3)c21
[A] ≤ 10 nM

Measured values drawn from patent US10968236B2 for this set.
